test system: HeLa; assay: Cytotoxicity against human HeLa cells after 7 days by MTT assay; format: functional, cell-based; conditions: 168 h
pIC50: −log10 of the molar value.
Threshold rule: pIC50 greater than or equal to 5 is Satisfied; below that, Not satisfied.

// query Confirm if pIC50 reported for the molecule C[C@H]1[C@@H](OC(=O)CCNCCCCCCNc2ccnc3cc(Cl)ccc23)O[C@@H]2O[C@@]3(C)CC[C@H]4[C@H](C)CC[C@@H]1[C@@]24OO3 is 5 or above.
// result Satisfied

// query Please check the record Clc1ccc2c(N3CCNCC3)ccnc2c1 and state if its pIC50 is at or above 5.
// result Not satisfied

// query pIC50 >= 5 for C[C@H]1[C@@H](OC(=O)CCN2CCN(c3ccnc4cc(Cl)ccc34)CC2)O[C@@H]2O[C@@]3(C)CC[C@H]4[C@H](C)CC[C@@H]1[C@@]24OO3 ?
// result Satisfied

// query Determine whether measured pIC50 meets or exceeds 5 for C[C@H]1[C@H](OC(=O)CCN2CCN(C)CC2)O[C@@H]2O[C@@]3(C)CC[C@H]4[C@H](C)CC[C@@H]1[C@@]24OO3
// result Satisfied

// query Check if pIC50 >= 5 (inclusive). Item: C=CC(=O)O[C@@H]1O[C@@H]2O[C@@]3(C)CC[C@H]4[C@H](C)CC[C@@H]([C@H]1C)[C@@]24OO3
// result Satisfied

// query Check the entry C[C@H]1[C@@H](OC(=O)CCNCCCNc2ccnc3cc(Cl)ccc23)O[C@@H]2O[C@@]3(C)CC[C@H]4[C@H](C)CC[C@@H]1[C@@]24OO3 : does pIC50 equal or exceed 5?
// result Satisfied

// query Hi, just wondering whether CCN(CC)CCC(=O)O[C@@H]1O[C@@H]2O[C@@]3(C)CC[C@H]4[C@H](C)CC[C@@H]([C@H]1C)[C@@]24OO3 shows pIC50 of 5 or higher.
// result Satisfied

----------
tested on: HeLa; test: Cytotoxicity against human HeLa cells after 7 days by MTT assay; assay type: functional, cell-based; settings: 168 h
Recorded IC50 by entry
Write down the numeric answer in µM and omit the unit.

Some solved cases for reference:
C=CC(=O)O[C@H]1O[C@@H]2O[C@@]3(C)CC[C@H]4[C@H](C)CC[C@@H]([C@H]1C)[C@@]24OO3: 2.88
C[C@H]1[C@H](OC(=O)CCN2CCNCC2)O[C@@H]2O[C@@]3(C)CC[C@H]4[C@H](C)CC[C@@H]1[C@@]24OO3: 8.91
C[C@H]1[C@@H](OC(=O)CCNCCNc2ccnc3cc(Cl)ccc23)O[C@@H]2O[C@@]3(C)CC[C@H]4[C@H](C)CC[C@@H]1[C@@]24OO3: 9.47

// query Can you share its IC50? I mean this compound: C[C@H]1[C@H](OC(=O)CCN2CCOCC2)O[C@@H]2O[C@@]3(C)CC[C@H]4[C@H](C)CC[C@@H]1[C@@]24OO3
// result 4.8

----------
In this section, each of the molecules is paired with its reported Ratio IC50.
test system: HeLa; test: Tumor specificity, ratio of IC50 for human resting and phytohaemagglutinin-stimulated lymphocytes to IC50 for human HeLa cells
Reply briefly: the number, and no unit.

C[C@H]1[C@@H](OC(=O)CCNCCCNc2ccnc3cc(Cl)ccc23)O[C@@H]2O[C@@]3(C)CC[C@H]4[C@H](C)CC[C@@H]1[C@@]24OO3: 2.4
C[C@H]1[C@H](OC(=O)CCN2CCOCC2)O[C@@H]2O[C@@]3(C)CC[C@H]4[C@H](C)CC[C@@H]1[C@@]24OO3: 5.7
C[C@H]1[C@H](OC(=O)CCN2CCN(c3ccccc3)CC2)O[C@@H]2O[C@@]3(C)CC[C@H]4[C@H](C)CC[C@@H]1[C@@]24OO3: 4.8

// query Enter reported Ratio IC50 observed with HeLa for C[C@H]1[C@@H](OC(=O)CCNCCNc2ccnc3cc(Cl)ccc23)O[C@@H]2O[C@@]3(C)CC[C@H]4[C@H](C)CC[C@@H]1[C@@]24OO3
// result 1.8

// query Recall the recorded Ratio IC50 for C[C@H]1[C@H](OC(=O)CCN2CCN(C)CC2)O[C@@H]2O[C@@]3(C)CC[C@H]4[C@H](C)CC[C@@H]1[C@@]24OO3 with HeLa and state it.
// result 4.1

// query Any idea what Ratio IC50 came out for C[C@H]1[C@@H](OC(=O)CCNCCCCNc2ccnc3cc(Cl)ccc23)O[C@@H]2O[C@@]3(C)CC[C@H]4[C@H](C)CC[C@@H]1[C@@]24OO3 on HeLa?
// result 2

----------
assay: Cytotoxicity against human resting lymphocytes after 3 days by MTT assay; assay type: cell-based; settings: Lymphocyte, 72 h
MEASUREMENT TYPE: IC50

// query Data request, read-out IC50, for C=CC(=O)O[C@H]1O[C@@H]2O[C@@]3(C)CC[C@H]4[C@H](C)CC[C@@H]([C@H]1C)[C@@]24OO3
// result 30.5 µM

// query # lookup: IC50 of C[C@H]1[C@H](OC(=O)CCN(C)Cc2ccccc2)O[C@@H]2O[C@@]3(C)CC[C@H]4[C@H](C)CC[C@@H]1[C@@]24OO3
// result > 50 µM

// query Suppose we examine the compound CCN(CC)CCC(=O)O[C@@H]1O[C@@H]2O[C@@]3(C)CC[C@H]4[C@H](C)CC[C@@H]([C@H]1C)[C@@]24OO3 ; what IC50 value has been reported?
// result > 50 µM

// query I'd like to know its IC50. The compound in question is C[C@H]1[C@H](OC(=O)CCN2CCNCC2)O[C@@H]2O[C@@]3(C)CC[C@H]4[C@H](C)CC[C@@H]1[C@@]24OO3
// result > 50 µM

// query Find the recorded IC50 belonging to C[C@H]1[C@@H](OC(=O)CCN2CCN(c3ccnc4cc(Cl)ccc34)CC2)O[C@@H]2O[C@@]3(C)CC[C@H]4[C@H](C)CC[C@@H]1[C@@]24OO3 and report it.
// result 44.6 µM

// query Could you share which IC50 value was measured for C=CC(=O)O[C@@H]1O[C@@H]2O[C@@]3(C)CC[C@H]4[C@H](C)CC[C@@H]([C@H]1C)[C@@]24OO3 ?
// result 39.6 µM

----------
test system: HeLa; assay: Cytotoxicity against human HeLa cells after 7 days by MTT assay; format: functional, cell-based; conditions: 168 h
pIC50: −log10 of the molar value.
Label true for high-side pIC50 (at or above 5) and false for low-side pIC50 (below it).

C[C@H]1[C@H](OC(=O)CCN(C)Cc2ccccc2)O[C@@H]2O[C@@]3(C)CC[C@H]4[C@H](C)CC[C@@H]1[C@@]24OO3: true

// query Is the recorded value of pIC50 equal to or greater than 5 for this molecule? NCCCCCCNc1ccnc2cc(Cl)ccc12
// result false

// query Quick check: does C[C@H]1[C@H](OC(=O)CCN2CCN(c3ccccc3)CC2)O[C@@H]2O[C@@]3(C)CC[C@H]4[C@H](C)CC[C@@H]1[C@@]24OO3 have pIC50 greater than or equal to 5?
// result true

----------
The entries below come with measured pIC50 values attached.
tested on: HeLa; assay: Cytotoxicity against human HeLa cells after 7 days by MTT assay; format: functional, cell-based; details: 168 h
Units for pIC50: none; it is -log10 of a concentration expressed in mol/L.

Take a look at these entries with their results.
NCCCNc1ccnc2cc(Cl)ccc12: 5.01
NCCCCNc1ccnc2cc(Cl)ccc12: 4.95
NCCNc1ccnc2cc(Cl)ccc12: 5.14
CC(C)NCCC(=O)O[C@@H]1O[C@@H]2O[C@@]3(C)CC[C@H]4[C@H](C)CC[C@@H]([C@H]1C)[C@@]24OO3: 4.88

// query Which pIC50 is reported for this compound? C[C@H]1[C@@H](OC(=O)CCNCCCCNc2ccnc3cc(Cl)ccc23)O[C@@H]2O[C@@]3(C)CC[C@H]4[C@H](C)CC[C@@H]1[C@@]24OO3
// result 4.99
